Target or test system: central muscarinic binding site
Experimental parameters: Table 2; radio-labeled quinuclidinyl benzilate (antagonist), rat cerebral cortex
pIC50: −log10 of the molar value.
Entries and their pIC50 values follow.

CON=CC1=CCN(C)CC1 | < 9.00

From here, focus on the item given below.
Which measured pIC50 belongs to CON=CC1=CCNCC1 , tested on central muscarinic binding site?
> 9.00

====

Below is a list of entries, each paired with its recorded minimal effective dose value.
Test system: laboratory rats given scopolamine
Experimental details: SIS, scopolamine induced swimming test
Format: in vivo, rat
Experimental parameters: Rattus norvegicus, sc; Tables 3 and 4; Subcutaneous; scopolamine 0.1 mg/kg; five minute test period; rats; read-out: Minimal Effective Dose for Reversal of Scopolamine-Induced Swimming Hyperactivity
In your response, put the unit directly after the numeric value.

Here is how some compounds turned out for minimal effective dose.
CON=CC1=CCCNC1 | 3.2 mg/kg
CON=CC1=CCCN(C)C1 | 3.2 mg/kg
CON=CC1=CCN(C)CC1 | 32 mg/kg

# input compound: CON=C(C)C1=CCNCC1 ; wanted: its minimal effective dose
10 mg/kg

====

Target or test system: central muscarinic binding site
Experimental parameters: Table 1; radio-labeled quinuclidinyl benzilate (antagonist), rat cerebral cortex
IC50 values for the molecules below.
Write the answer as a number in µM, unit excluded.

Field: example entries. Status: answers known.
CCON=CC1=CCCNC1 | 1
CCON=CC1=CCCN(C)C1 | 10
CCC(=NOC)C1=CCCNC1 | 9.5
CON=CC1=CCCN(C)C1 | 1.8
CON=C(C)C1=CCCNC1 | 5.8

Moving on to another molecule below.
Query: IC50; subject: CON=CC1=CCCNC1
7.1

====

Target or test system: central muscarinic binding site
Experimental details: RCMD screening assay (inhibition of radio-labeled cis-methyldioxolane binding, rat cerebral cortex tissue)
Experimental parameters: Table 1, radio-labeled cis-methyldioxolane (agonist)
As shown below, each of these compounds has a reported IC50 value.

See these solved cases before continuing.
CCON=CC1=CCCNC1 [Example 7] | 42 nM
CCON=CC1=CCCN(C)C1 [Example 6] | 28 nM
CON=CC1=CCCNC1 [Example 4] | 10 nM

Field request: IC50 | item: CCC(=NOC)C1=CCCNC1 [Example 2]
290 nM

Which IC50 value is on record for CON=CC1=CCCN(C)C1 [Example 3] ?
2 nM

Need IC50, item CON=C(C)C1=CCCNC1 [Example 8]
28 nM

====

Target or test system: central muscarinic binding site
Experimental details: RCMD screening assay (inhibition of radio-labeled cis-methyldioxolane binding, rat cerebral cortex tissue)
Experimental parameters: Table 2, radio-labeled cis-methyldioxolane (agonist)
pIC50: −log10 of the molar value.
Recorded measurements of pIC50, one per entry

What value of measured pIC50 is listed for CON=CC1=CCN(C)CC1 ?
< 10.00

Can you share its pIC50? I mean this compound: CON=CC1=CCNCC1
< 10.00
